Overview of reported viability score across a group of compounds:
System: RAW-Dual (murine macrophage reporter line)
Experiment summary: viability score (confluency relative to resting cells, overnight) (fraction); higher = more viable, active = viable (0.7 or more)
Assay context: modulator concentration 10 µM

| Compound | viability score |
| --- | --- |
| CC(=O)Nc1c(-c2ccc3ccccc3c2)nc2ccccn12 | 0.995 |
| Cc1ccc(C(CNC(=O)NC2CCCC2)OCCO)cc1 (stereo unspecified) | 1.01 |
| COc1ccc(NC(=O)c2ccc(C(=N)N(C)C)cc2)c(C(=O)Nc2ccc(Cl)cn2)c1 | 0.994 |
| CC(C)NCC(O)COc1cccc2[nH]ccc12 (stereo unspecified) [Prestw-90] | 0.985 |
| C#Cc1cccc(Nc2ncnc3cc(OCCOC)c(OCCOC)cc23)c1.Cl | 0.853 |
| O=C(NCCCc1cnc2ncnn2c1)c1cccc2ccccc12 | 0.98 |
| Br.CC(=O)c1cccc(Nc2nc(-c3c(C)nc4cc(C)ccn34)cs2)c1 | 0.25 |
| O=C1C(=Cc2ccccc2)SC(=S)N1CO | 0.968 |
| CC(=O)Nc1nc(C2CC2)cc(-c2ccco2)c1C#N | 1 |
| CCOc1ccccc1OCCCCOc1cccc(C)c1C | 1 |
| CCOC(=O)C1=C(C)NC2=C(C(=O)CC(C)(C)C2)C1c1ccccc1Br (stereo unspecified) | 1.02 |

* * *

Test system: RAW-Dual (murine macrophage reporter line)
Experiment summary: viability score (confluency relative to resting cells, overnight) (fraction); higher = more viable, active = viable (0.7 or more)
Assay context: modulator concentration 10 µM
Experimental readout: viability score

| Molecule | Measured |
| --- | --- |
| Nc1ncnc2c1ncn2[C@@H]1O[C@H](CO)[C@@H](O)[C@@H]1O | 0.991 |
| CCN(CC)c1ccc(C=NNC(=O)c2ccncc2)c(O)c1 | 0.695 |
| C=Cc1c(C)c2cc3nc(cc4[nH]c(cc5nc(cc1[nH]2)C(C)=C5CCC(=O)O)c(CCC(=O)OC)c4C)[C@@]1(C)C3=CC=C(C(=O)OC)[C@H]1C(=O)OC | 0.344 |
| COc1cc(NC(=O)NCc2nc(C)cc(N3CCOCC3)n2)cc(OC)c1 | 0.982 |
| CCc1nc2ccc(C(=O)NC3CCC(n4cccn4)CC3)cc2s1 (stereo not given) | 1 |
| CC(C)(C)n1cnc2cc(N=Cc3ccc(Cl)cc3)ccc21 | 1 |
| O=Cc1ccc(OC(=O)c2cccc(C(=O)Oc3ccc(C=O)cc3)c2)cc1 | 0.989 |
| CCN(CC)CCNC(=O)c1c(C)[nH]c(/C=C2\C(=O)Nc3ccc(F)cc32)c1C | 0.359 |
| COc1ccc(NC(=O)CN(c2ccc(F)cc2)S(C)(=O)=O)c(OC)c1 | 0.999 |
| CN1CCN(C2=C(Cl)C(=O)N(c3ccc(Cl)c(Cl)c3)C2=O)CC1 | 1.01 |

* * *

Test system: RAW-Dual (murine macrophage reporter line)
Experiment summary: IRF reporter (Lucia luciferase) activity fold change vs agonist alone; higher = enhanced IRF activity
Assay context: modulator concentration 10 µM; agonist: LPS 0.1 ug/mL

| Compound | IRF reporter |
| --- | --- |
| CCCCSc1nnc2c(n1)OC(c1cccc(F)c1)Nc1ccc(Br)cc1-2 (configuration not stated) | 1.24 |
| CN1CCN(C2CC(=O)N(c3ccc(N4CCOCC4)cc3)C2=O)CC1 (configuration not stated) | 1.37 |
| O=c1oc2c3c4c(cc2cc1-c1nnc(-c2ccccc2)o1)CCCN4CCC3 | 1.41 |
| O=C(C(Cl)Cl)N1CCN(Cc2ccccc2)CC1 | 1.25 |
| CS(=O)(=O)N1CCN(Cc2cc3nc(-c4cccc5[nH]ncc45)nc(N4CCOCC4)c3s2)CC1 | 1.4 |
| CCOc1ccc(-c2ccc(=O)n(CCNS(=O)(=O)CCc3ccccc3)n2)cc1 | 0.984 |
| COc1ccc(C(C)NC(=O)c2[nH]nnc2-c2ccc(F)cc2)cc1 (configuration not stated) | 1.01 |
| CCNc1cc(C)nc(Nc2ccc(NC(=O)c3ccc(OC)c(OC)c3)cc2)n1 | 1.19 |
| Cc1cc(C)nc(SCCCCSc2nc(C)cc(C)n2)n1 | 0.979 |
| C=C1CCC2C(C)(CO)C(O)CCC2(C)C1CC=C1C(=O)OCC1O (configuration not stated) | 2.13 |
| Cc1cc2ncc3c(n2n1)CCN(C(=O)c1cnoc1C)C3 | 1.11 |
| Cc1cc(OCC(=O)Nc2ccc(Cl)c(C(F)(F)F)c2)ccc1Cl | 1.7 |
| Cc1cc(Cl)ccc1OCCCC(=O)NO | 0.449 |
| CS(=O)(=O)c1cccc(C[C@H](NC(=O)c2c(Cl)cc3c(c2Cl)CCN(C(=O)c2ccc4ccoc4c2)C3)C(=O)O)c1 | 1.37 |
| CCN(CC)C(=O)/C(C#N)=C/c1cc(O)c(O)c([N+](=O)[O-])c1 | 1.22 |
| COc1ccc(Cl)cc1S(=O)(=O)NCc1ccccn1 | 1.01 |
| COC(=O)C1C(=O)C(=CNCc2ccccc2)C(=O)CC1(C)C (configuration not stated) | 1.06 |
| O=C(NCc1nc(C2CCCCC2)cs1)c1ccc(F)cc1 | 1.26 |
| O=C(Nc1ccc(S(=O)(=O)Nc2nccs2)cc1)c1c(F)cccc1F | 1.52 |
| O=c1[nH]cnc2scc(-c3ccc(Br)cc3)c12 | 1.65 |
| O=C(O)CCCCC1SCC2NC(=O)NC21 (configuration not stated) | 1.18 |
| CC(C)c1cc(C(=O)N2Cc3ccc(CN4CCN(C)CC4)cc3C2)c(O)cc1O | 0.971 |

Source of measurements: the supplement of paper PMC10646978
